- tested on: T1, Fc fused human IL-18Rα (human, UniProt Q13478 19-329, limits assumed)
- T1 construct: also called IL-18Rα monomer; human IL-18 receptor alpha (CD218a); not shown: Fc
- T1 sequence (looked up): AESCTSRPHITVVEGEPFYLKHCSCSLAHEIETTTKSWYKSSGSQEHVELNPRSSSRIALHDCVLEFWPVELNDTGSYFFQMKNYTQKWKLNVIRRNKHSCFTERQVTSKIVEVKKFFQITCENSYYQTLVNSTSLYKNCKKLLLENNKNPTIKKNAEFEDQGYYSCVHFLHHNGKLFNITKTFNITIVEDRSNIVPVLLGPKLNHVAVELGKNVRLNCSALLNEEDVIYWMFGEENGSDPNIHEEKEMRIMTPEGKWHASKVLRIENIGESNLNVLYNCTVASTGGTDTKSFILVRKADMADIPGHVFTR
- method notes: SPR, Fc-IL-18Rα captured, 1:1 fit
measurement label: kon (M⁻¹ s⁻¹)
Provide only the numeric value, understood in M⁻¹ s⁻¹.

Request the reported kon associated with IL-18 variant SEQ ID NO: 57 (E6K, C38S, K53A) (ligand) YFGKLKSKLSVIRNLNDQVLFIDQGNRPLFEDMTDSDSRDNAPRTIFIISMYADSQPRGMAVTISVKCEKISTLSCENKIISFKEMNPPDNIKDTKSDIIFFQRSVPGHDNKMQFESSSYEGYFLACEKERDLFKLILKKEDELGDRSIMFTVQNED
95200

Try IL-18 variant SEQ ID NO: 59 (E6K, C38A, K53A) (ligand) YFGKLKSKLSVIRNLNDQVLFIDQGNRPLFEDMTDSDARDNAPRTIFIISMYADSQPRGMAVTISVKCEKISTLSCENKIISFKEMNPPDNIKDTKSDIIFFQRSVPGHDNKMQFESSSYEGYFLACEKERDLFKLILKKEDELGDRSIMFTVQNED next.
1.77e+06

Same lookup for IL-18 variant SEQ ID NO: 30 with 30 kDa PEG (E6K, V11I, C38A, K53A, T63A, C76A, C127A, C68-30kPEG) (ligand, 30 kDa PEG on Cys 68 (C68-30kPEG), also called 30 + PEG30; 30 + PEG) YFGKLKSKLSIIRNLNDQVLFIDQGNRPLFEDMTDSDARDNAPRTIFIISMYADSQPRGMAVAISVKCEKISTLSAENKIISFKEMNPPDNIKDTKSDIIFFQRSVPGHDNKMQFESSSYEGYFLAAEKERDLFKLILKKEDELGDRSIMFTVQNED , please.
125000
